assay: Half life in 0.01 M HClO4, pH = 3.0; assay type: ADME
recorded-endpoint: half-life (h)
One number for each entry, in h.

Qu. Quick check: half-life of CC(O)CN(N=O)C(N)=O (stereo unspecified) ?
Ans. 10

###

test: Half life in 0.067 M buffer, pH = 7.4; format: ADME; settings: 0.067 M buffer
recorded-endpoint: half-life (min)
Answers are plain numbers, in min.

Qu. I am curious: what half-life value has been reported for CC(O)CN(N=O)C(N)=O (stereo unspecified) ?
Ans. 14.5

###

test: Half life in 0.10 M (D20), pH = 7.4; type: ADME; details: 0.10 M (D2O)
recorded-endpoint: half-life (min)
Give bare numbers, in min.

Qu. Which half-life is reported for this molecule? CC(O)CN(N=O)C(N)=O (stereo unspecified)
Ans. 37.2
